Source: PubChem BioAssay (Tox21)

test: qHTS assay to identify small molecule agonists of the AP-1 signaling pathway - cell viability counter screen (AID 1159525); conditions: ME-180 (cervical carcinoma) AP-1-bla cells viability, ATP luminescence, 5 h; series mostly up to 76.8 µM; further: nearly all actives have a fitted effect of over 55% in size
Records with an inconclusive call do not appear. Activity calls are given as the source filed them. The call rests on the fitted dose curve.
Respond using exactly one of the listed classes: active, inactive

Worked examples follow.
>>> assigned_category("BrCC(Br)(Br)Br")
"inactive"
>>> assigned_category("CCCCn1cc[n+](C)c1 (tested in a mixture with another compound)")
"inactive"
>>> assigned_category("Nc1nc(N)c(N)c(N)n1")
"inactive"

// return assay outcome for `CCCCCCCc1ccc(O)cc1`
active

// return assay outcome for `Brc1ccc(Oc2ccc(Br)cc2Br)c(Br)c1`
inactive

// return assay outcome for CC(C)NCC(O)c1ccccc1Cl (stereo not drawn)
inactive

// return assay outcome for `c1ccc2c(c1)cc1ccc3cccc4ccc2c1c34`
inactive

// return assay outcome for `O=S(=O)(O)F`
inactive

* * *

assay: A CellTox Green Cytotoxicity Assay to monitor cytotoxicity in HEK293 cells - 40 hour (AID 1224871); conditions: CellTox Green fluorescence; series mostly up to 76.8 µM; further: nearly all actives have a fitted effect of over 45% in size; further: potency means the concentration at half of the fitted maximal effect
Inconclusive results are not listed. Calls of active or inactive are those of the source. Calls come from the whole dose curve; as a rule, active = well fitted activation curve with a large enough effect in the repeat runs; inconclusive = weak or mixed curves; inactive = flat fitted curve, though single readings scatter.
PARAMETER_MEASURED: Potency

Solved entries (count: 5):
>>> observed_measurement("[Cl][Hg][c]1ccccc1")
"1.23 µM (active)"
>>> observed_measurement("CC1(C)[C@H](/C=C2\\CCSC2=O)[C@@H]1C(=O)OCc1coc(Cc2ccccc2)c1")
"inactive"
>>> observed_measurement("CCC[CH2][Sn]([CH2]CCC)([O]C(C)=O)[O]C(C)=O")
"0.278 µM (active)"
>>> observed_measurement("CC(C)C(Br)C(=O)NC(N)=O (configuration not stated)")
"inactive"
>>> observed_measurement("Nc1ccc(N=Nc2ccccc2)cc1")
"inactive"

Provide the reported Potency of each entry below, same order.
1. CC(C)c1c(CN(C)C(C)Cc2ccccc2)n(C)n(-c2ccccc2)c1=O (configuration not stated)
2. C[C@H]1[C@H](c2ccc(Cl)cc2)SC(=O)N1C(=O)NC1CCCCC1
3. COC(=O)c1cc(Oc2ccc(Cl)cc2Cl)ccc1[N+](=O)[O-]
4. C[C@]12Cc3cn[nH]c3C[C@@H]1CC[C@@H]1[C@@H]2CC[C@@]2(C)[C@H]1CC[C@]2(C)O
5. C#CCC1=C(C)C(OC(=O)C2C(C=C(C)C)C2(C)C)CC1=O (configuration not stated)

1. inactive
2. inactive
3. inactive
4. inactive
5. inactive

Provide the reported Potency of each entry below, same order.
1. C=CC(=C)C
2. O=[N+]([O-])c1cc(C(F)(F)F)c(Cl)c([N+](=O)[O-])c1Nc1ncc(C(F)(F)F)cc1Cl

inactive
24.5 µM (active)

* * *

assay: qHTS assay to identify small molecule HDAC inhibitors - cell viability counter screen (AID 1259365); settings: HCT-116 viability, CellTiter-Glo ATP luminescence, 2 h; series mostly up to 92.4 µM; further: nearly all actives have a fitted effect of over 50% in size; further: potency means the concentration at half of the fitted maximal effect
The source made the active and inactive calls. Calls come from the whole dose curve; as a rule, active = well fitted cell-killing curve with a large enough effect in the repeat runs; inconclusive = weak or mixed curves, or effect the other way; inactive = flat fitted curve, though single readings scatter.
PARAMETER_MEASURED: Potency

Solved entries (count: 5):
>>> observed_measurement("COc1ccc2c(c1OC)C(=O)O[C@@H]2[C@H]1c2cc3c(cc2CCN1C)OCO3")
"inactive"
>>> observed_measurement("CN(C)C(=S)SSC(=S)N(C)C")
"inactive"
>>> observed_measurement("C[C@@H]1CC2=CC(=O)CC[C@@H]2[C@H]2CC[C@@]3(C)[C@@H](CC[C@]3(C)O)[C@@H]21")
"inactive"
>>> observed_measurement("COC(=O)C(C)N(C(=O)c1ccco1)c1c(C)cccc1C (configuration not stated)")
"inactive"
>>> observed_measurement("N#Cc1c2ccccc2cc2ccccc12")
"inactive"

Provide the reported Potency of each entry below, same order.
1. c1ccc2c(c1)cc1ccc3cccc4ccc2c1c34
2. N#CCCl
3. O=C(Nc1ccc(F)cc1F)c1cccnc1Oc1cccc(C(F)(F)F)c1
4. CC(O)C(=O)[O][Hg][c]1ccccc1 (configuration not stated)
5. CCCCc1ccccc1
6. CC1(C)[C@H](/C=C2\CCSC2=O)[C@@H]1C(=O)OCc1coc(Cc2ccccc2)c1
7. CC(=O)[O][Sn]([c]1ccccc1)([c]1ccccc1)[c]1ccccc1

1. inactive
2. inactive
3. inactive
4. 4.33 µM (active)
5. inactive
6. inactive
7. 54.5 µM (active)
